System: Plasmodium berghei
Test Details: Screen against P. berghei liver stage (PbLuc), transformed with Luciferase, at 2uM
Assay type: functional, HepG2
Measurement Conditions: tested at 2 uM
The campaign covered roughly 68,000 compounds. About 2,700 (4%) showed an effect of 50% or more. Shown is part of a subset that was picked to be rich in strong results.
# INHIBITION per entry
Value Type: INHIBITION (%)

INSERT INTO measurements (compound, quantitative_readout) VALUES
  ('N#Cc1ccc(CNCC2CCN(CCO)CC2)cc1', 1.07),
  ('COc1ccc(C[C@H]2CN(C(=O)CS(C)(=O)=O)CC[C@H]2OC)cc1', 39.18),
  ('COc1ccc2c(C)c(C(=O)NC3CCOCC3)oc2c1', -8.3),
  ('O=C(NCC1CCOC1)c1cc(-c2ccc(Cl)cc2)n[nH]1 (stereo unspecified)', 61.07),
  ('COc1ccc(CCC(=O)NCCN2CCC(c3cccs3)CC2)cc1', 11.78),
  ('COc1ccc2c(C)c(C(=O)NCC3CN(S(C)(=O)=O)CCO3)oc2c1 (stereo unspecified)', 60.71);

====

The following molecules are listed with their measured INHIBITION values.
Tested on: Plasmodium berghei
Test Details: Screen against P. berghei liver stage (PbLuc), transformed with Luciferase, at 2uM
Type: functional, HepG2
Measurement Conditions: tested at 2 uM
In all, about 68,000 compounds went through this assay and about 2,700 (4%) showed an effect of 50% or more. Only a selection was taken, and strong results are over-represented in it overall.
Value Type: INHIBITION (%)

INSERT INTO assay_data (molecule, value_type, quantitative_readout) VALUES
  ('CCN(Cc1ccccc1)c1ncnc2c(C)nn(CC)c12', 'INHIBITION', -4.77),
  ('COc1ccc(CS(=O)(=O)CC(=O)NCC2CC2)cc1F', 'INHIBITION', 29.89),
  ('CCOC(=O)[C@]12CCCN(Cc3cccs3)C[C@H]1CN(C(C)=O)C2', 'INHIBITION', -12.74),
  ('O=C(Nc1ccccc1)N1CC(C(=O)N2CCCC2)C2(CCOCC2)C1 (centres undefined)', 'INHIBITION', 51.72),
  ('COC(=O)c1ccc2ccn(CC3COCCO3)c(=O)c2c1 (centres undefined)', 'INHIBITION', 21),
  ('COC(=O)c1ccc2ccn(CC3CCCO3)c(=O)c2c1 (centres undefined)', 'INHIBITION', 52.21),
  ('CCS(=O)(=O)Nc1cnn(Cc2cccc(F)c2)c1', 'INHIBITION', 3.58),
  ('CC(C)NC(=O)C1CN(C(=O)Nc2ccccc2)CC12CCOCC2 (centres undefined)', 'INHIBITION', 47.1),
  ('CCS(=O)(=O)Nc1cnn(Cc2cccc(Cl)c2)c1', 'INHIBITION', 20.19),
  ('O=C(N1CCCC1)N1CCN(CC2CC2)c2ncccc2C1', 'INHIBITION', -3.08),
  ('COCCOCC(=O)N1C[C@@H]2CC[C@H]1CN(C1Cc3ccccc3C1)C2', 'INHIBITION', 61.82),
  ('CCC(CCN)n1ccc(C(F)(F)F)n1 (centres undefined)', 'INHIBITION', -31.71),
  ('CC(NC(=O)COCC(F)(F)F)c1nnc2n1CCCCC2 (centres undefined)', 'INHIBITION', 15.08),
  ('CNC(=O)CS(=O)(=O)Cc1ccc(OC)c(F)c1', 'INHIBITION', 69.67),
  ('CNc1nc(CNC(=O)Nc2cccc(F)c2)cs1', 'INHIBITION', -88.54),
  ('CNc1nc(C(=O)N2CCCn3nc(C(=O)N4CCCC4)cc3C2)cs1', 'INHIBITION', -38.39),
  ('O=C(C1CCOC1)N1CCN(Cc2ccncc2)c2ncccc2C1 (centres undefined)', 'INHIBITION', 31.08),
  ('CC(C)CN1CCCn2nc(CNC(=O)Cc3cccc(O)c3)cc2C1', 'INHIBITION', 49.95),
  ('COc1cccn(CC(=O)N2CCCC3(CCCCC3)C2)c1=O', 'INHIBITION', 26.14),
  ('CCCN1CCC(c2nc3ccc(-c4ccccc4)cn3n2)CC1', 'INHIBITION', 13.16),
  ('CCS(=O)(=O)Nc1cnn(Cc2cccc(C)c2)c1', 'INHIBITION', 52.95),
  ('O=C1CCC[C@]2(CN(S(=O)(=O)N3CCCCC3)C[C@H]2c2cccnc2)N1', 'INHIBITION', -0.64),
  ('CC(C)N1CCC(c2nc3ccc(-c4ccnn4C)cn3n2)CC1', 'INHIBITION', 51.94),
  ('COC(=O)c1ccc2ccn(CC3CCCCO3)c(=O)c2c1 (centres undefined)', 'INHIBITION', -32.35);
